Items are presented alongside their recorded viability, T/C.
Test system: 695427-040-R-J1-PDC complex spheroids, viability percent T/C
TEST: Anticancer human tumor 695427-040-R-J1-PDC patient-derived colon adenocarcinoma cell line growth inhibition [GQUAD]
RUN PARAMETERS: second compound 0.1 µM; first compound 0.1 µM; hits give low values
Entry rule: numbers only, all in %.

For orientation, consider the following solved cases.
// query viability, T/C value for entry O=C(NO)c1cnc(N2CCN(S(=O)(=O)c3ccc4ccccc4c3)CC2)nc1 + Cc1[nH]c2ccc(F)cc2c1-c1nc2c3cccnc3c3ncccc3c2[nH]1
91.1

Proceed to COc1cc(C2c3cc4c(cc3C(OC3OC5COC(C)OC5C(O)C3O)C3COC(=O)C23)OCO4)cc(OC)c1O (stereo not given) + CN(C)c1ccc(Nc2c3ccc(NC(=O)CCN4CCCC4)cc3nc3cc(NC(=O)CCN4CCCC4)ccc23)cc1
91.6

Query CC(C)n1c(=O)n(C)c2cnc3cc(F)c(-c4ccc(OCCCN5CCCCC5)nc4)cc3c21 + Cc1[nH]c2ccc(F)cc2c1-c1nc2c3cccnc3c3ncccc3c2[nH]1 next
97.2

Try the compound O=C(c1cc(Cc2n[nH]c(=O)c3ccccc23)ccc1F)N1CCN(C(=O)C2CC2)CC1 + CN(C)c1ccc(Nc2c3ccc(NC(=O)CCN4CCCC4)cc3nc3cc(NC(=O)CCN4CCCC4)ccc23)cc1
94.2

Next, consider the following compound.
Could you share which viability, T/C value was measured for COc1cccc2c1C(=O)c1c(O)c3c(c(O)c1C2=O)CC(O)(C(=O)CO)CC3OC1CC(N)C(O)C(C)O1 (stereo not given) + CN(C)c1ccc(Nc2c3ccc(NC(=O)CCN4CCCC4)cc3nc3cc(NC(=O)CCN4CCCC4)ccc23)cc1 ?
92

* * *

Listed below: viability, T/C values for each entry.
Test system: 695427-040-R-J1-PDC complex spheroids, viability percent T/C
TEST: Anticancer human tumor 695427-040-R-J1-PDC cell line growth inhibition [GQUAD];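 note: spheroids exposed to compounds for seven days before readout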
RUN PARAMETERS: second compound 0.0316 µM; first compound 0.0316 µM; hits give low values

Quick check: viability, T/C of C#Cc1c(F)ccc2cc(O)cc(-c3ncc4c(N5CC6CCC(C5)N6)nc(OCC56CCCN5CC(F)C6)nc4c3F)c12 (stereo unspecified) + Cc1[nH]c2ccc(F)cc2c1-c1nc2c3cccnc3c3ncccc3c2[nH]1 ?
105%

For Nc1ccn(C2OC(CO)C(O)C2(F)F)c(=O)n1 (stereo unspecified) + Cc1[nH]c2ccc(F)cc2c1-c1nc2c3cccnc3c3ncccc3c2[nH]1 then?
78.4%

Please answer likewise for CC1COCCN1c1cc(-c2ccnn2C)c2ccnc(-c3ccn[nH]3)c2n1 (stereo unspecified) + Cc1[nH]c2ccc(F)cc2c1-c1nc2c3cccnc3c3ncccc3c2[nH]1
86.8%

Try Cc1cccc(N(C)C(=O)C2C(O)CCN2c2nc(C)cc(C(F)(F)F)c2C#N)c1 (stereo unspecified) + Cc1cnc(CNC(=O)c2c(=O)c3ccc(N4CCCN(C)CC4)nc3n3c2sc2ccccc23)cn1 next.
110%

What do we get for COc1ncnc(C2CC2)c1-c1ncc2cnn(Cc3ccc(-c4nc(C(F)(F)F)cn4C(C)C)cc3)c2n1 + Cc1[nH]c2ccc(F)cc2c1-c1nc2c3cccnc3c3ncccc3c2[nH]1 ?
98%

Next:
Requested read-out: viability, T/C. Entry: CC[C@@]1(O)C(=O)OCc2c1cc1n(c2=O)Cc2cc3c(CN(C)C)c(O)ccc3nc2-1 + Cc1cnc(CNC(=O)c2c(=O)c3ccc(N4CCCN(C)CC4)nc3n3c2sc2ccccc23)cn1
76%

Entry Cn1ncnc1[C@H]1c2n[nH]c(=O)c3cc(F)cc(c23)N[C@@H]1c1ccc(F)cc1 + Cc1cnc(CNC(=O)c2c(=O)c3ccc(N4CCCN(C)CC4)nc3n3c2sc2ccccc23)cn1 please
66.4%

Would you kindly repeat that for COc1ccc([C@@H](O)c2cc(-c3ncnc4cc(N5CCOCC5)ccc34)c(F)cc2Cl)nn1 + CN(C)c1ccc(Nc2c3ccc(NC(=O)CCN4CCCC4)cc3nc3cc(NC(=O)CCN4CCCC4)ccc23)cc1 ?
97.4%

Try this compound too: C=CC(=O)N1CCN(c2nc(=O)n(-c3c(C)ccnc3C(C)C)c3nc(-c4c(O)cccc4F)c(F)cc23)C(C)C1 (stereo unspecified) + Cc1[nH]c2ccc(F)cc2c1-c1nc2c3cccnc3c3ncccc3c2[nH]1
108%

Can you handle CC(C)n1c(=O)n(C)c2cnc3cc(F)c(-c4ccc(OCCCN5CCCCC5)nc4)cc3c21 + Cc1[nH]c2ccc(F)cc2c1-c1nc2c3cccnc3c3ncccc3c2[nH]1 next?
116%

Item: CC1COCCN1c1cc(C2(O)CC3CCC(C2)O3)c2cnn(-c3ccn[nH]3)c2n1 (stereo unspecified) + CN(C)c1ccc(Nc2c3ccc(NC(=O)CCN4CCCC4)cc3nc3cc(NC(=O)CCN4CCCC4)ccc23)cc1
105%

What do you get for CC1COCCN1c1cc(C2(S(C)(=N)=O)CC2)nc(-c2ccnc3[nH]ccc23)n1 (stereo unspecified) + Cc1[nH]c2ccc(F)cc2c1-c1nc2c3cccnc3c3ncccc3c2[nH]1 ?
99.3%

What do you get for Nc1ccn(C2OC(CO)C(O)C2(F)F)c(=O)n1 (stereo unspecified) + Cc1cnc(CNC(=O)c2c(=O)c3ccc(N4CCCN(C)CC4)nc3n3c2sc2ccccc23)cn1 ?
91.9%

Note, next up: CC(C)n1c(=O)n(C)c2cnc3cc(F)c(-c4ccc(OCCCN5CCCCC5)nc4)cc3c21 + Cc1cnc(CNC(=O)c2c(=O)c3ccc(N4CCCN(C)CC4)nc3n3c2sc2ccccc23)cn1
80.7%

Entry O=C(c1cc(Cc2n[nH]c(=O)c3ccccc23)ccc1F)N1CCN(C(=O)C2CC2)CC1 + Cc1cnc(CNC(=O)c2c(=O)c3ccc(N4CCCN(C)CC4)nc3n3c2sc2ccccc23)cn1 please
94.2%

Queued: C#Cc1c(F)ccc2cc(O)cc(-c3ncc4c(N5CC6CCC(C5)N6)nc(OCC56CCCN5CC(F)C6)nc4c3F)c12 (stereo unspecified) + CN(C)c1ccc(Nc2c3ccc(NC(=O)CCN4CCCC4)cc3nc3cc(NC(=O)CCN4CCCC4)ccc23)cc1
101%

Follow-up entry: CC1COCCN1c1cc(C2(O)CC3CCC(C2)O3)c2cnn(-c3ccn[nH]3)c2n1 (stereo unspecified) + Cc1[nH]c2ccc(F)cc2c1-c1nc2c3cccnc3c3ncccc3c2[nH]1
83.2%

What about this compound? O=C(c1cc(Cc2n[nH]c(=O)c3ccccc23)ccc1F)N1CCN(C(=O)C2CC2)CC1 + CN(C)c1ccc(Nc2c3ccc(NC(=O)CCN4CCCC4)cc3nc3cc(NC(=O)CCN4CCCC4)ccc23)cc1
111%

One more compound: CC1COCCN1c1cc(C2(O)CC3CCC(C2)O3)c2cnn(-c3ccn[nH]3)c2n1 (stereo unspecified) + Cc1cnc(CNC(=O)c2c(=O)c3ccc(N4CCCN(C)CC4)nc3n3c2sc2ccccc23)cn1
75.1%

One more compound: COc1ncnc(C2CC2)c1-c1ncc2cnn(Cc3ccc(-c4nc(C(F)(F)F)cn4C(C)C)cc3)c2n1 + Cc1cnc(CNC(=O)c2c(=O)c3ccc(N4CCCN(C)CC4)nc3n3c2sc2ccccc23)cn1
104%

What do we get for CC1COCCN1c1cc(-c2ccnn2C)c2ccnc(-c3ccn[nH]3)c2n1 (stereo unspecified) + CN(C)c1ccc(Nc2c3ccc(NC(=O)CCN4CCCC4)cc3nc3cc(NC(=O)CCN4CCCC4)ccc23)cc1 ?
95.2%

Entry source: PubChem BioAssay AID2060492
